- tgt: UniProt:P56817
- protocol: Inhibition of recombinant human BACE1 (1 to 460 residues) expressed in baculovirus infected insect cells at 50 uM using Rh-EVNLDAEFK-Quencher as substrate incubated under dark condition for 90 mins by FRET assay relative to control
observable: inhibition

smiles-text	observed-result
Cc1ccc(Cn2cc(CNc3ccc(Br)cc3NC(=O)c3cc4ccccc4oc3=N)nn2)cc1	52.4%
N=c1oc2ccccc2cc1C(=O)Nc1cc(Br)ccc1NCc1cn(Cc2cccc(Cl)c2Cl)nn1	62%
N=c1oc2ccccc2cc1C(=O)Nc1cc(Br)ccc1NCc1cn(CCCN2C(=O)c3ccccc3C2=O)nn1	84.2%
N=c1oc2ccccc2cc1C(=O)Nc1cc(Br)ccc1NCc1cn(CCCCN2C(=O)c3ccccc3C2=O)nn1	77.6%
N=c1oc2ccccc2cc1C(=O)Nc1cc(Br)ccc1NCc1cn(Cc2ccccc2)nn1	25.2%
N=c1oc2ccccc2cc1C(=O)Nc1cc(Br)ccc1NCc1cn(Cc2ccc(F)cc2)nn1	45.9%
COc1ccc(Cn2cc(CNc3ccc(Br)cc3NC(=O)c3cc4ccccc4oc3=N)nn2)cc1	34.5%
N=c1oc2ccccc2cc1C(=O)Nc1cc(Br)ccc1NCc1cn(Cc2ccc(Cl)c(Cl)c2)nn1	60.8%
N=c1oc2ccccc2cc1C(=O)Nc1cc(Br)ccc1NCc1cn(Cc2ccc(Br)cc2)nn1	100%

* * *

- protocol: Metal chelating activity assessed as compound-Fe2+ complex formation at 400 uM preincubated with ferrous ion FeCl2 followed by ferrozine addition measured after 10 mins by spectroscopic method
observable: Activity (%)

smiles-text	output-unit	observed-result
N=c1oc2ccccc2cc1C(=O)Nc1cc(Br)ccc1NCc1cn(Cc2ccc(Br)cc2)nn1	%	45.2
N=c1oc2ccccc2cc1C(=O)Nc1cc(Br)ccc1NCc1cn(CCCCN2C(=O)c3ccccc3C2=O)nn1	%	12.8
N=c1oc2ccccc2cc1C(=O)Nc1cc(Br)ccc1NCc1cn(CCCN2C(=O)c3ccccc3C2=O)nn1	%	10.2
O=C(O)CN(CCN(CC(=O)O)CC(=O)O)CC(=O)O	%	96.4

* * *

- Tested on: PC-12
- protocol: Neuroprotection against amyloid beta (25 to 35)-induced cell death in rat PC12 cells preincubated for 3 hrs followed by amyloid beta addition measured after 24 hrs by MTT assay
- Assay type: functional, cell-based
pIC50: −log10 of the molar value.
Reported pIC50 values for a set of compounds
observable: pIC50

smiles-text	observable	observed-result
O=C(O)/C=C/c1ccc(O)c(O)c1	pIC50	4.12
N=c1oc2ccccc2cc1C(=O)Nc1cc(Br)ccc1NCc1cn(CCCN2C(=O)c3ccccc3C2=O)nn1	pIC50	5.10
N=c1oc2ccccc2cc1C(=O)Nc1cc(Br)ccc1NCc1cn(Cc2cccc(Cl)c2Cl)nn1	pIC50	4.72
N=c1oc2ccccc2cc1C(=O)Nc1cc(Br)ccc1NCc1cn(Cc2ccc(Cl)c(Cl)c2)nn1	pIC50	4.04
N=c1oc2ccccc2cc1C(=O)Nc1cc(Br)ccc1NCc1cn(CCCCN2C(=O)c3ccccc3C2=O)nn1	pIC50	5.17
N=c1oc2ccccc2cc1C(=O)Nc1cc(Br)ccc1NCc1cn(Cc2ccc(Br)cc2)nn1	pIC50	4.42

* * *

- tgt: Beta-secretase 1 (Homo sapiens)
- Sequence (P56817 whole entry, the tested form may be a part): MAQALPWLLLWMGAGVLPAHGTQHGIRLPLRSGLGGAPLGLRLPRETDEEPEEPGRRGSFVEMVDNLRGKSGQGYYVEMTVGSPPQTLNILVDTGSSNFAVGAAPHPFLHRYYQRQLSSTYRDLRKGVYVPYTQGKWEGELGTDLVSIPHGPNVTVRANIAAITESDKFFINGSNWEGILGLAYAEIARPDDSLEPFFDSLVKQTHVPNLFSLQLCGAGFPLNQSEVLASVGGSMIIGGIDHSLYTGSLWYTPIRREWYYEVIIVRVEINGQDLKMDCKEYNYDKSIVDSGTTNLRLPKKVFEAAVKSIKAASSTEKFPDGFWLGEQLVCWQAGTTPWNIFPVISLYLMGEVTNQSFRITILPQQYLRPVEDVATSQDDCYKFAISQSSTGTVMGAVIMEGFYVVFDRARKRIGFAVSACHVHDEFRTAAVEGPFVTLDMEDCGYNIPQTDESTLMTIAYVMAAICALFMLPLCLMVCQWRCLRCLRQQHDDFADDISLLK
- protocol: Inhibition of recombinant human BACE1 (1 to 460 residues) expressed in baculovirus infected insect cells using Rh-EVNLDAEFK-Quencher as substrate incubated under dark condition for 90 mins by FRET assay
pIC50: −log10 of the molar value.
Reported pIC50 values for a set of compounds
observable: pIC50

smiles-text	tgt	observable	observed-result
N=c1oc2ccccc2cc1C(=O)Nc1cc(Br)ccc1NCc1cn(Cc2cccc(Cl)c2Cl)nn1	Beta-secretase 1 (Homo sapiens)	pIC50	4.81
N=c1oc2ccccc2cc1C(=O)Nc1cc(Br)ccc1NCc1cn(CCCCN2C(=O)c3ccccc3C2=O)nn1	Beta-secretase 1 (Homo sapiens)	pIC50	5.17
N=c1oc2ccccc2cc1C(=O)Nc1cc(Br)ccc1NCc1cn(CCCN2C(=O)c3ccccc3C2=O)nn1	Beta-secretase 1 (Homo sapiens)	pIC50	5.66
N=c1oc2ccccc2cc1C(=O)Nc1cc(Br)ccc1NCc1cn(Cc2ccc(Cl)c(Cl)c2)nn1	Beta-secretase 1 (Homo sapiens)	pIC50	5.12
N=c1oc2ccccc2cc1C(=O)Nc1cc(Br)ccc1NCc1cn(Cc2ccc(Br)cc2)nn1	Beta-secretase 1 (Homo sapiens)	pIC50	5.19
